The measurements presented in this section are drawn from patent US20150299125A1.

Molecular target: recombinant human GST-Syk (Homo sapiens)
Construct: purchased Carna Biosciences 08-176
Test: Homogeneous Time-Resolved Fluorescence (HTRF) assay for the recombinant human Syk enzyme
Format: biochemical
Details: recombinant human GST-Syk 5 pM, ATP 25 μM, read-out: IC50
pIC50: −log10 of the molar value.

| compound | operator | pIC50 |
| --- | --- | --- |
| COCCN(C)C(=O)OC(C)OC(=O)[C@H]1CC[C@H]([C@@](C)(O)c2ccc(-c3cc(C)cc(Nc4cc(C(F)F)ccn4)n3)cn2)CC1 (single isomer, unassigned) [Example 4-1a] | = | 7.61 |
| CC(=O)C1CC[N+](C)(COC(=O)[C@H]2CC[C@H]([C@@](C)(O)c3ccc(-c4cc(C)cc(Nc5cc(C(F)F)ccn5)n4)cn3)CC2)CC1 (stereo partly drawn) [Example 5-17] | = | 8.80 |
| Cc1cc(Nc2cc(C(F)F)ccn2)nc(-c2ccc([C@](C)(O)[C@H]3CC[C@H](C(=O)OCCOP(=O)(O)O)CC3)nc2)c1 [Example 8-2] | > | 9.30 |
